# experiment: Berzosertib plasma pharmacokinetics, phase Ib trial
# experimental_context: human, plasma, iv, 135 mg/m2, Cmax, Dose level −1, 135 mg/m^2 IV, N = 6, Day 2 of cycle 1, plasma, geometric mean (SD)
readout_type: Cmax
Answer format reminder: number followed by unit.

Query Cmax for CNCc1ccc(-c2cc(-c3nc(-c4ccc(S(=O)(=O)C(C)C)cc4)cnc3N)on2)cc1 [Berzosertib]
640 ng/mL

----------
# experiment: Berzosertib plasma pharmacokinetics, phase Ib trial
# experimental_context: human, plasma, iv, 135 mg/m2, Cmax, Total N = 12, 135 mg/m^2 IV, Day 2 of cycle 1, plasma, geometric mean (SD)
readout_type: Cmax (ng/mL)
Record the value in ng/mL, omitting the unit from your answer.

Query Cmax for CNCc1ccc(-c2cc(-c3nc(-c4ccc(S(=O)(=O)C(C)C)cc4)cnc3N)on2)cc1 [Berzosertib]
669

----------
# experiment: Berzosertib plasma pharmacokinetics, phase Ib trial
# experimental_context: human, plasma, iv, 135 mg/m2, Cmax, Dose level 1, 135 mg/m^2 IV, N = 6, Day 2 of cycle 1, plasma, geometric mean (SD)
readout_type: Cmax (ng/mL)
Record the value in ng/mL, omitting the unit from your answer.

Query Cmax for CNCc1ccc(-c2cc(-c3nc(-c4ccc(S(=O)(=O)C(C)C)cc4)cnc3N)on2)cc1 [Berzosertib]
700
